assay: in vitro; type: cell-based; details: Table 2; RAW 264.7 viability 50%, colorimetric assay, extended up to 500 μM; read-out: LC50
READOUT: CC50 at 24 h
Answer with the figure and its unit, nothing else.

Qu. Give a short answer stating reported CC50 at 24 h for NCC(=O)Nc1ccc(-n2nc(C(F)(F)F)cc2-c2ccc3c(ccc4ccccc43)c2)cc1 [AR-12, reference compound] .
Ans. 8.3 µM

Data provenance: paper doi:10.64898/2025.12.30.696991
